Tested on: Plasmodium falciparum
Assay notes: Screen against P. falciparum Asexual Blood Stage (ABS), at 5uM
Type: functional, Dd2
Run conditions: tested at 5 uM
In all, about 65,000 compounds went through this assay and about 2,100 (3.2%) showed an effect of 50% or more. The median lay at about -52%. The entries come from a sample that favours strong results as a whole.
Below is a list of entries, each paired with its recorded INHIBITION value.
Express the result in % but write the number alone.

>>> test_result("Cc1ccc(CN2C[C@@H]3C[C@H](C(=O)Nc4cccnc4)[C@H](C2)O3)cc1")
41.3
>>> test_result("CC(C(=O)N1CCc2sccc2C1)N1CCCN(C2CC2)CC1 (stereo not given)")
22.7
>>> test_result("CN(C)[C@@H]1CCN(S(=O)(=O)c2cn(C)cn2)[C@H]1Cc1cccnc1")
-57.5

Could you tell me which INHIBITION is on file for "Cc1cc(-c2cnc(N3CCC(O)CC3)nc2C(C)C)on1" ?
13.7

Consider next the compound "CCC(=O)Nc1ccc2c(c1)C1(CCOCC1)CN2CCOC" in the same way.
-59.9

What do we get for "COc1ncccc1CNC(=O)c1c(C)oc(C)c1C" ?
32.4

Now try "Cc1oc(C)c(C(=O)NCc2ccccc2S(=O)(=O)N(C)C)c1C" .
-57.1

What do you get for "CC(C)(C)c1nc(CN(CCC2CCCCC2)CC(N)=O)no1" ?
-85.5

----------
System: Plasmodium falciparum
Assay notes: Screen against P. falciparum Asexual Blood Stage (ABS), at 5uM
Format: functional, Dd2
Run conditions: tested at 5 uM
The campaign covered roughly 65,000 compounds. About 2,100 (3.2%) showed an effect of 50% or more. The median lay at about -52%. The entries come from a sample that favours strong results as a whole.
Outcome measure: INHIBITION (%)
# output: bare number, implied unit %

Query INHIBITION on Plasmodium falciparum for "CS(=O)(=O)CCN1CCN(c2ccc(Cl)cn2)CC1"
0.0372

----------
System: Plasmodium falciparum
Assay notes: Screen against P. falciparum Asexual Blood Stage (ABS), at 5uM
Format: functional, Dd2
Run conditions: tested at 5 uM
The whole screen tested about 65,000 compounds, of which about 2,100 (3.2%) showed an effect of 50% or more. The median lay at about -52%. What follows is part of a selection rich in strong results, with near analogues and random picks from the rest.
INHIBITION overview
Reply with the number and its unit after it.

>>> test_result("CCc1ccc(CN2CCC3(CC2)C(=O)N(C)CCN3CC2CC2)cc1")
"68.9%"
>>> test_result("CCN1CCN(C)C(=O)C12CCN(Cc1ccsc1)CC2")
"-35.5%"

For CCNC(=O)C1CCN(c2cc(-c3ccccc3)nc3ccnn23)C1 (stereo not drawn) , what is its reported INHIBITION?
-26.4%

----------
System: Plasmodium falciparum
Assay notes: Screen against P. falciparum Asexual Blood Stage (ABS), at 5uM
Format: functional, Dd2
Run conditions: tested at 5 uM
Screen size: about 65,000 compounds; about 2,100 (3.2%) showed an effect of 50% or more. The median lay at about -52%. The sample as a whole holds a higher share of strong results than the screen did.
Property: INHIBITION; scope: individual compounds
Use % as the unit, but write only the number.

In the examples that follow, each entry is paired with its recorded INHIBITION.
>>> test_result("CCCc1cc(N2CCC(NCC3(O)CCN(C)CC3)CC2)nc(C)n1")
51.2
>>> test_result("Cn1nc(CN2CCCC2)c2c1CN(c1cnccn1)CC2")
-56
>>> test_result("c1ccc2c(NC3CCc4ncnn4C3)ncnc2c1 (stereo unspecified)")
-38

For Cc1cc(C(=O)N2CCCCC2C)ccc1NC(=O)N1CCOCC1 (stereo unspecified) , what is its reported INHIBITION?
-137

Please answer likewise for "CCc1nnc(Nc2cccc(C3CCN(S(=O)(=O)N(C)C)CC3)n2)s1"
7.99

Now the compound O=C(C1CCOC1)N1CCC2(CCN(Cc3nccs3)CC2)CC1 (stereo unspecified)
-146

Follow-up item: CN(C)Cc1ccnc(C2CCCN2Cc2ccc3ncccc3c2)n1 (stereo unspecified)
42

Now the same for O=C(c1ccccn1)N1CCC2(CC1)COC(COCC1CCCC1)C2 (stereo unspecified)
-14.7

Lookup "Cc1cccc(Nc2ccc(C3CCN(Cc4ncc[nH]4)CC3)nc2)n1"
51.8

How about CC(CNC(=O)c1cc(Cl)ccc1F)N1CCCC1 (stereo unspecified) ?
12.4

Input CC(CNC(=O)c1ccc(Cl)cc1F)N1CCN(C)CC1 (stereo unspecified)
64.1

Subsequent entry: COc1ccccc1C1CNCCN1C(C)=O (stereo unspecified)
-43.1

// query: "CCO[C@H]1CC[C@H]2[C@H]1OCCN2C(=O)c1nn(C)c2ccccc12"
-77.6
